Data provenance is patent US20200031785A1.

- tgt: hAC1 (Homo sapiens, UniProt Q08828)
- Construct: expressed in transfected cells
- Sequence (Q08828 whole entry): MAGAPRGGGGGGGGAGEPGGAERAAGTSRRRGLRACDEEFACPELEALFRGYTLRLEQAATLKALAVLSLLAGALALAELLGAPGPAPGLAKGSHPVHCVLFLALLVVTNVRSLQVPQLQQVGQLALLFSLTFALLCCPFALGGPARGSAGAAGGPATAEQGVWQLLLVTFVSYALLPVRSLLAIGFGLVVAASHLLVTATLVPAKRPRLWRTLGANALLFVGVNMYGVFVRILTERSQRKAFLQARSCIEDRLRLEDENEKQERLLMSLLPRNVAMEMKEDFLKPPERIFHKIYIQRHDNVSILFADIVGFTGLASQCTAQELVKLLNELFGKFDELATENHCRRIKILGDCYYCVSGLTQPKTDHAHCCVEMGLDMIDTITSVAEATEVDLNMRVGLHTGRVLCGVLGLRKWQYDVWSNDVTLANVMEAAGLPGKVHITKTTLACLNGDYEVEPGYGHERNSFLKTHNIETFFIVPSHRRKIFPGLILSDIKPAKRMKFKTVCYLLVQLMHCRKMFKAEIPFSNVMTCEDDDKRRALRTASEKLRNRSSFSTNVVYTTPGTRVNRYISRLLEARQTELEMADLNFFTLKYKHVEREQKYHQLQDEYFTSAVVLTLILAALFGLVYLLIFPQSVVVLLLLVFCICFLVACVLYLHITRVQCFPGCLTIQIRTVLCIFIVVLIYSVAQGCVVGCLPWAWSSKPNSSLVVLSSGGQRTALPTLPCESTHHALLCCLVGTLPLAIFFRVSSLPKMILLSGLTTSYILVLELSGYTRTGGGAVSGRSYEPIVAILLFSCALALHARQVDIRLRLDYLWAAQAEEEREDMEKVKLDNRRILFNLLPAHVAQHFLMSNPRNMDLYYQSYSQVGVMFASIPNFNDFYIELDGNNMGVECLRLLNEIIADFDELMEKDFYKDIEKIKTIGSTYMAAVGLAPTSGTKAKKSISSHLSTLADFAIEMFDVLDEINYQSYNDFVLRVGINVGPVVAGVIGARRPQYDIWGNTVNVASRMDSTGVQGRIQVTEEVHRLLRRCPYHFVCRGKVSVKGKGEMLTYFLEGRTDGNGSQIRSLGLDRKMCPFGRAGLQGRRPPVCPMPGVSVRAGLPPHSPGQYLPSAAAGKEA
- assay text: Cyclic AMP accumulation in HEK cells stably expressing AC1, stimulated with A23187 (HTRF)
- Format: cell-based
- assay context: HEK293; HEK-AC1 cells, 30 μM
measured metric: inhibition at 30 µM (%)
Supply the numeric figure in %, leaving out any unit text.

Example entries and their recorded answers appear below.
# molecule, inhibition at 30 µM / %
records = [
    ("Cc1ccc(C(=O)Nc2nnc(C3CCCCC3)o2)cc1C(F)(F)F [AC10071]", 100),
    ("O=C(Nc1nnc(-c2ccc(F)cc2)o1)c1cccc(F)c1 [AC10046]", 81),
    ("COc1ccc(C(=O)Nc2nnc(-c3ccc(F)cc3)o2)cc1 [AC10039]", 73),
]

## Task Entry O=C(Nc1nnc(-c2ccc(F)cc2)o1)c1ccc(S(=O)(=O)N2CCCCC2)cc1 [AC10036] : reported inhibition at 30 µM = ?
## Result 83

## Task # lookup: inhibition at 30 µM of O=C(Nc1nnc(-c2ccc(F)cc2)o1)c1cccc(C(F)(F)F)c1 [AC10028]
## Result 99

## Task Field request: inhibition at 30 µM | item: COc1cccc(C(=O)Nc2nnc(-c3ccc4c(c3)CCCC4)o2)c1 [AC10016]
## Result 99

## Task // inhibition at 30 µM lookup, key: O=C(Nc1nnc(C2CCCCC2)o1)c1cccc(F)c1 [AC10047]
## Result 79

## Task Query (molecule): Cc1ccc(C(=O)Nc2nnc(-c3ccc(F)cc3)o2)cc1 [AC10031] ; field requested: inhibition at 30 µM
## Result 80

## Task Quick one: inhibition at 30 µM for Cc1ccc(C(=O)Nc2nnc(-c3ccc4c(c3)OCCO4)o2)cc1C [AC10035] ?
## Result 100

## Task Value lookup for inhibition at 30 µM; key = COc1ccc(C(=O)Nc2nnc(C3CCCCC3)o2)cc1 [AC10040]
## Result 73

====

- tgt: hAC1 (Homo sapiens, UniProt Q08828)
- Construct: expressed in transfected cells
- assay text: Cyclic AMP accumulation in HEK cells stably expressing AC1, stimulated with A23187 (HTRF)
- Assay type: cell-based
- assay context: HEK293; HEK-AC1 cells, 30 μM
measured metric: inhibition at 30 µM (%)
Write the value in % as a bare number.

Examples with their reported inhibition at 30 µM follow.
# smiles code, tgt, units text, inhibition at 30 µM
rows = [
    ("COc1cccc(C(=O)Nc2nnc(-c3ccc4c(c3)OCCO4)o2)c1", "hAC1 (Homo sapiens, UniProt Q08828)", "%", 84),
    ("O=C(Nc1nnc(C2CCCCC2)o1)c1ccc(Br)cc1", "hAC1 (Homo sapiens, UniProt Q08828)", "%", 82),
    ("CSc1cccc(C(=O)Nc2nnc(C3CCCCC3)o2)c1", "hAC1 (Homo sapiens, UniProt Q08828)", "%", 77),
]

## Task Name the recorded inhibition at 30 µM for `COc1cc(C(=O)Nc2nnc(-c3ccc(F)cc3)o2)cc(C(F)(F)F)c1` .
## Result 97

## Task Recorded inhibition at 30 µM of `O=C(Nc1nnc(C2CCCCC2)o1)c1ccc(Cl)cc1` , please.
## Result 71

## Task Please look up its inhibition at 30 µM: `O=C(Nc1nnc(-c2ccc3c(c2)CCCC3)o1)c1cccc(C(F)(F)F)c1`
## Result 100

## Task Sample `O=C(Nc1nnc(-c2ccc(F)cc2)o1)c1ccccc1` — what was its inhibition at 30 µM?
## Result 65
